# ASSAY INFO: Stability of the analytes in human plasma at QC levels
# Type: in vitro ADME
# RECORDED CONDITIONS: middle QC; 40 days, −40 °C; human plasma; n = 5
MEASURED PROPERTY: Long-term MCM ± SD

Some molecules with known Long-term MCM ± SD results, for comparison:
C[C@H]1C[C@H]2[C@@H]3CCC4=CC(=O)C=C[C@]4(C)[C@@]3(F)[C@@H](O)C[C@]2(C)[C@@]1(O)C(=O)COP(=O)([O-])[O-].[Na+].[Na+] [BSP, betamethasone sodium phosphate] = 39.94 ± 5.576 × 10^−9 mol·dm^−3
CCC(=O)OCC(=O)[C@@]1(OC(=O)CC)[C@@H](C)C[C@H]2[C@@H]3CCC4=CC(=O)C=C[C@]4(C)[C@@]3(F)[C@@H](O)C[C@@]21C [BDP, betamethasone dipropionate] = 4.734 ± 0.141 × 10^−9 mol·dm^−3
CCC(=O)OCC(=O)[C@@]1(O)[C@@H](C)C[C@H]2[C@@H]3CCC4=CC(=O)C=C[C@]4(C)[C@@]3(F)[C@@H](O)C[C@@]21C [B21P, betamethasone 21-monopropionate] = 1.891 ± 0.143 × 10^−9 mol·dm^−3
C[C@H]1C[C@H]2[C@@H]3CCC4=CC(=O)C=C[C@]4(C)[C@@]3(F)[C@@H](O)C[C@]2(C)[C@@]1(O)C(=O)CO = 10.57 ± 0.577 × 10^−9 mol·dm^−3

Alright, here's another molecule for you.
Asked: Can you share its Long-term MCM ± SD? I mean this molecule: CCC(=O)O[C@]1(C(=O)CO)[C@@H](C)C[C@H]2[C@@H]3CCC4=CC(=O)C=C[C@]4(C)[C@@]3(F)[C@@H](O)C[C@@]21C [B17P, betamethasone 17-monopropionate]
Given back: 1.241 ± 0.129 × 10^−9 mol·dm^−3

###

# ASSAY INFO: Stability of the analytes in human plasma at QC levels
# Format: in vitro ADME
# RECORDED CONDITIONS: low QC; 6 h, r.t.; human plasma; n = 5
Below, each of the compounds is paired with its reported Short-term MCM ± SD value.

CCC(=O)O[C@]1(C(=O)CO)[C@@H](C)C[C@H]2[C@@H]3CCC4=CC(=O)C=C[C@]4(C)[C@@]3(F)[C@@H](O)C[C@@]21C [B17P, betamethasone 17-monopropionate] = 0.214 ± 0.020 × 10^−9 mol·dm^−3
CCC(=O)OCC(=O)[C@@]1(OC(=O)CC)[C@@H](C)C[C@H]2[C@@H]3CCC4=CC(=O)C=C[C@]4(C)[C@@]3(F)[C@@H](O)C[C@@]21C [BDP, betamethasone dipropionate] = 0.258 ± 0.048 × 10^−9 mol·dm^−3
C[C@H]1C[C@H]2[C@@H]3CCC4=CC(=O)C=C[C@]4(C)[C@@]3(F)[C@@H](O)C[C@]2(C)[C@@]1(O)C(=O)COP(=O)([O-])[O-].[Na+].[Na+] [BSP, betamethasone sodium phosphate] = 4.988 ± 0.250 × 10^−9 mol·dm^−3
CCC(=O)OCC(=O)[C@@]1(O)[C@@H](C)C[C@H]2[C@@H]3CCC4=CC(=O)C=C[C@]4(C)[C@@]3(F)[C@@H](O)C[C@@]21C [B21P, betamethasone 21-monopropionate] = 0.463 ± 0.062 × 10^−9 mol·dm^−3

Alright, here's another compound for you.
Asked: Can you share its Short-term MCM ± SD? I mean this compound: C[C@H]1C[C@H]2[C@@H]3CCC4=CC(=O)C=C[C@]4(C)[C@@]3(F)[C@@H](O)C[C@]2(C)[C@@]1(O)C(=O)CO [BOH, betamethasone]
Given back: 0.610 ± 0.048 × 10^−9 mol·dm^−3

###

# ASSAY INFO: Stability of the analytes in human plasma at QC levels
# Type: in vitro ADME
# RECORDED CONDITIONS: high QC; four cycles, −40 °C; human plasma; n = 5
Below, each of the molecules is paired with its reported Freeze–thaw MCM ± SD value.

Some molecules with known Freeze–thaw MCM ± SD results, for comparison:
CCC(=O)O[C@]1(C(=O)CO)[C@@H](C)C[C@H]2[C@@H]3CCC4=CC(=O)C=C[C@]4(C)[C@@]3(F)[C@@H](O)C[C@@]21C [B17P, betamethasone 17-monopropionate] = 3.832 ± 0.330 × 10^−9 mol·dm^−3
CCC(=O)OCC(=O)[C@@]1(OC(=O)CC)[C@@H](C)C[C@H]2[C@@H]3CCC4=CC(=O)C=C[C@]4(C)[C@@]3(F)[C@@H](O)C[C@@]21C [BDP, betamethasone dipropionate] = 44.94 ± 1.177 × 10^−9 mol·dm^−3
C[C@H]1C[C@H]2[C@@H]3CCC4=CC(=O)C=C[C@]4(C)[C@@]3(F)[C@@H](O)C[C@]2(C)[C@@]1(O)C(=O)CO = 63.29 ± 2.673 × 10^−9 mol·dm^−3
CCC(=O)OCC(=O)[C@@]1(O)[C@@H](C)C[C@H]2[C@@H]3CCC4=CC(=O)C=C[C@]4(C)[C@@]3(F)[C@@H](O)C[C@@]21C [B21P, betamethasone 21-monopropionate] = 4.211 ± 0.301 × 10^−9 mol·dm^−3

Asked: Can you share its Freeze–thaw MCM ± SD? I mean this molecule: C[C@H]1C[C@H]2[C@@H]3CCC4=CC(=O)C=C[C@]4(C)[C@@]3(F)[C@@H](O)C[C@]2(C)[C@@]1(O)C(=O)COP(=O)([O-])[O-].[Na+].[Na+] [BSP, betamethasone sodium phosphate]
Given back: 315.1 ± 4.665 × 10^−9 mol·dm^−3

###

Below, each of the compounds is paired with its reported Short-term MCM ± SD value.
# ASSAY INFO: Stability of the analytes in human plasma at QC levels
# Type: in vitro ADME
# RECORDED CONDITIONS: middle QC; 6 h, r.t.; human plasma; n = 5

CCC(=O)O[C@]1(C(=O)CO)[C@@H](C)C[C@H]2[C@@H]3CCC4=CC(=O)C=C[C@]4(C)[C@@]3(F)[C@@H](O)C[C@@]21C [B17P, betamethasone 17-monopropionate] = 1.196 ± 0.112 × 10^−9 mol·dm^−3
CCC(=O)OCC(=O)[C@@]1(O)[C@@H](C)C[C@H]2[C@@H]3CCC4=CC(=O)C=C[C@]4(C)[C@@]3(F)[C@@H](O)C[C@@]21C [B21P, betamethasone 21-monopropionate] = 1.873 ± 0.094 × 10^−9 mol·dm^−3
CCC(=O)OCC(=O)[C@@]1(OC(=O)CC)[C@@H](C)C[C@H]2[C@@H]3CCC4=CC(=O)C=C[C@]4(C)[C@@]3(F)[C@@H](O)C[C@@]21C [BDP, betamethasone dipropionate] = 4.746 ± 0.155 × 10^−9 mol·dm^−3
C[C@H]1C[C@H]2[C@@H]3CCC4=CC(=O)C=C[C@]4(C)[C@@]3(F)[C@@H](O)C[C@]2(C)[C@@]1(O)C(=O)COP(=O)([O-])[O-].[Na+].[Na+] [BSP, betamethasone sodium phosphate] = 39.36 ± 5.767 × 10^−9 mol·dm^−3

Alright, here's another compound for you.
Asked: Can you share its Short-term MCM ± SD? I mean this compound: C[C@H]1C[C@H]2[C@@H]3CCC4=CC(=O)C=C[C@]4(C)[C@@]3(F)[C@@H](O)C[C@]2(C)[C@@]1(O)C(=O)CO
Given back: 10.87 ± 0.633 × 10^−9 mol·dm^−3

###

# ASSAY INFO: Stability of the analytes in human plasma at QC levels
# Format: in vitro ADME
# RECORDED CONDITIONS: low QC; autosampler r.t., 48 h; n = 5
MEASURED PROPERTY: The autosampler Dev. (48h, %)
Quick reminder: number only, in %, skip the unit.

C[C@H]1C[C@H]2[C@@H]3CCC4=CC(=O)C=C[C@]4(C)[C@@]3(F)[C@@H](O)C[C@]2(C)[C@@]1(O)C(=O)COP(=O)([O-])[O-].[Na+].[Na+] [BSP, betamethasone sodium phosphate] = 10.63
CCC(=O)O[C@]1(C(=O)CO)[C@@H](C)C[C@H]2[C@@H]3CCC4=CC(=O)C=C[C@]4(C)[C@@]3(F)[C@@H](O)C[C@@]21C [B17P, betamethasone 17-monopropionate] = −5.68
CCC(=O)OCC(=O)[C@@]1(O)[C@@H](C)C[C@H]2[C@@H]3CCC4=CC(=O)C=C[C@]4(C)[C@@]3(F)[C@@H](O)C[C@@]21C [B21P, betamethasone 21-monopropionate] = −0.5

Asked: Can you share its The autosampler Dev. (48h, %)? I mean this molecule: C[C@H]1C[C@H]2[C@@H]3CCC4=CC(=O)C=C[C@]4(C)[C@@]3(F)[C@@H](O)C[C@]2(C)[C@@]1(O)C(=O)CO
Given back: 2.29

Asked: Can you share its The autosampler Dev. (48h, %)? I mean this molecule: CCC(=O)OCC(=O)[C@@]1(OC(=O)CC)[C@@H](C)C[C@H]2[C@@H]3CCC4=CC(=O)C=C[C@]4(C)[C@@]3(F)[C@@H](O)C[C@@]21C [BDP, betamethasone dipropionate]
Given back: −10.4
